targetOrSystem: UniProt:Q07889
pIC50: −log10 of the molar value.
Label Fulfilled when pIC50 is at or above 7; anything below gets Not fulfilled.

Consider the worked cases shown below.
> print(dat)
                                   compound       category
1  Cc1nc(NC(C)c2ccc(Br)s2)c2cc(F)ncc2n1 (centres unmarked) [Example 35]  Not fulfilled
2  Cc1nc(NC(C)c2ccc(-c3ccccc3CN(C)C)s2)c2cc(OCCCO)ncc2n1 (centres unmarked) [Example 76]      Fulfilled

Now for a further compound.
Test whether the compound COc1cc2c(N[C@H](C)c3ccc(F)c(Cl)c3)nc(C)nc2cn1 [Example 8] records pIC50 of 7 or higher.
Not fulfilled

----------
pIC50: −log10 of the molar value.
The following are reported pIC50 results, target or system hSOS1 (hSOS1-mediated loading of hK-RasG12C-GDP) (Homo sapiens, UniProt Q07889).

Known pIC50 results, listed for orientation:
> print(dat)
                                   compound  result
1  Cc1nc(NC(C)c2ccc(-c3ccccc3CO)s2)c2cc(F)ncc2n1 (stereo not drawn) [Example 68]  < 4.70
2  CNCc1ccccc1-c1ccc(C(C)Nc2nc(C)nc3cnc(F)cc23)s1 (stereo not drawn) [Example 36]  < 4.70

Attention now turns to another entry.
Tell me its pIC50 on hSOS1 (hSOS1-mediated loading of hK-RasG12C-GDP) (Homo sapiens, UniProt Q07889): Cc1nc(N[C@H](C)c2cccc(Br)c2)c2nc(N(C)C)ccc2n1 [Example 31]
Sequence (Q07889 with tags, fused parts or gaps): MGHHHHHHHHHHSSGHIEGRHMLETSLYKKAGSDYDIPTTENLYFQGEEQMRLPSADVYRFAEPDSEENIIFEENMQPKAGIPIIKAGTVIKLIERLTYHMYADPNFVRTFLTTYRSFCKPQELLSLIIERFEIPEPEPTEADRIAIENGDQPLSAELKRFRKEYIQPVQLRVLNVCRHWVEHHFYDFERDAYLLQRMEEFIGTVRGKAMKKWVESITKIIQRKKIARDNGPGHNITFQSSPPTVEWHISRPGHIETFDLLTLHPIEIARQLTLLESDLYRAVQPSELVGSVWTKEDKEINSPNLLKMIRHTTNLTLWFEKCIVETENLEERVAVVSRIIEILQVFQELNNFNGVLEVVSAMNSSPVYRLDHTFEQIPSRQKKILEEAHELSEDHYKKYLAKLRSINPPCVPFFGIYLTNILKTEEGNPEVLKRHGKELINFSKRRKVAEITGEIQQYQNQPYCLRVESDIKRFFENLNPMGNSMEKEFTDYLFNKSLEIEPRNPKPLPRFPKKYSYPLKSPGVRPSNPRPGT
< 4.70

----------
targetOrSystem: hSOS1 (hSOS1-mediated nucleotide exchange of hK-RasG12C) (Homo sapiens, UniProt Q07889)
Field: label. Allowed values: true (IC50 < 70 nM) or false (IC50 >= 70 nM).

> print(dat)
                                   compound  category
1  Cc1nc(NC(C)c2ccc(-c3ccccc3CN(C)C)s2)c2cc(N3CC(NS(=O)(=O)c4ccccc4)C3)ncc2n1 (centres unmarked)     false
2  COc1cc2c(NC(C)c3ccc(-c4ccccc4CN(C)C)s3)nc(C)nc2cn1 (centres unmarked)      true
3  CC(=O)NCCNc1cc2c(NC(C)c3ccc(-c4ccccc4CN(C)C)s3)nc(C)nc2cn1 (centres unmarked)     false

Consider the additional compound presented here.
Regarding Cc1nc(NC(C)c2ccc(-c3ccccc3CN(C)C)s2)c2cc(OCCO)ncc2n1 (centres unmarked) , kindly confirm whether its IC50 is beneath 70 nM.
false

# credit: patent US20220274979A1
